Give viability, T/C for every item shown.
# Test system: 857933-349-R-J2-PDC complex spheroid viability
# test description: Anticancer human tumor 857933-349-R-J2-PDC patient-derived colon adenocarcinoma cell line growth inhibition [POLQ]
# recorded conditions: second compound 0.0316 µM; first compound 10 µM; hits give low values
Write down the numeric answer in % and omit the unit.

Given CNCc1ccc(-c2[nH]c3cc(F)cc4c3c2CCNC4=O)cc1 + Cc1cccc(N(C)C(=O)C2C(O)CCN2c2nc(C)cc(C(F)(F)F)c2C#N)c1 , state its recorded viability, T/C.
99.7

Request the reported viability, T/C associated with COc1cccc2c1C(=O)c1c(O)c3c(c(O)c1C2=O)CC(O)(C(=O)CO)CC3OC1CC(N)C(O)C(C)O1 (stereo unspecified) + Nc1ccc(C#CCN(C(=O)Cc2ncc(C(F)(F)F)cc2C(F)(F)F)c2ccc(F)cc2)nn1
0.26

What does the data say about its viability, T/C? Entry: COc1cccc2c1C(=O)c1c(O)c3c(c(O)c1C2=O)CC(O)(C(=O)CO)CC3OC1CC(N)C(O)C(C)O1 (stereo unspecified) + COC1C(OC(N)=O)C(O)C(Oc2ccc3c(O)c(NC(=O)c4ccc(O)c(CC=C(C)C)c4)c(=O)oc3c2C)OC1(C)C
0.47

Which viability, T/C value belongs to O=C(c1cc(Cc2n[nH]c(=O)c3ccccc23)ccc1F)N1CCN(C(=O)C2CC2)CC1 + Nc1ccc(C#CCN(C(=O)Cc2ncc(C(F)(F)F)cc2C(F)(F)F)c2ccc(F)cc2)nn1 ?
88.1

# get_value(readout='viability, T/C', item= Nc1ccn(C2OC(CO)C(O)C2(F)F)c(=O)n1 (stereo unspecified) + Cc1cccc(N(C)C(=O)C2C(O)CCN2c2nc(C)cc(C(F)(F)F)c2C#N)c1 )
11.9

Query (compound): O=C(c1cc(Cc2n[nH]c(=O)c3ccccc23)ccc1F)N1CCN(C(=O)C2CC2)CC1 + Cc1cccc(N(C)C(=O)C2C(O)CCN2c2nc(C)cc(C(F)(F)F)c2C#N)c1 ; field requested: viability, T/C
84.7

Which viability, T/C value belongs to CCc1cc2c(N3CCc4c(cc(Cn5ccnc5)cc4-c4cn(C)nc4C(F)(F)F)C3=O)ccnc2c(OC)n1 + Cc1cccc(N(C)C(=O)C2C(O)CCN2c2nc(C)cc(C(F)(F)F)c2C#N)c1 ?
63.1

Any idea what its viability, T/C is? The compound is COc1cc2cc(C(=O)CCC(=O)O)sc2cc1OC + Nc1ccc(C#CCN(C(=O)Cc2ncc(C(F)(F)F)cc2C(F)(F)F)c2ccc(F)cc2)nn1
104

Name the reported viability, T/C value associated with the compound COc1cc2cc(C(=O)CCC(=O)O)sc2cc1OC + COC1C(OC(N)=O)C(O)C(Oc2ccc3c(O)c(NC(=O)c4ccc(O)c(CC=C(C)C)c4)c(=O)oc3c2C)OC1(C)C
93.8

Would you kindly share the measured viability, T/C for CCCS(=O)(=O)Nc1ccc(F)c(C(=O)c2c[nH]c3ncc(-c4ccc(Cl)cc4)cc23)c1F + Cc1cccc(N(C)C(=O)C2C(O)CCN2c2nc(C)cc(C(F)(F)F)c2C#N)c1 ?
28.1

Dear colleague, I am looking for the recorded viability, T/C of the following compound: COc1cc(C2c3cc4c(cc3C(OC3OC5COC(C)OC5C(O)C3O)C3COC(=O)C23)OCO4)cc(OC)c1O (stereo unspecified) + Cc1cccc(N(C)C(=O)C2C(O)CCN2c2nc(C)cc(C(F)(F)F)c2C#N)c1
33.9

Quick one: viability, T/C for O=C(Nc1ccc(O)c(NS(=O)(=O)c2ccc(F)cc2)c1)c1ccc(-c2ccccc2)cc1 + COC1C(OC(N)=O)C(O)C(Oc2ccc3c(O)c(NC(=O)c4ccc(O)c(CC=C(C)C)c4)c(=O)oc3c2C)OC1(C)C ?
78.6

Which viability, T/C reading was recorded for the compound CCc1cc2c(N3CCc4c(cc(Cn5ccnc5)cc4-c4cn(C)nc4C(F)(F)F)C3=O)cc(C)nc2c(OC)n1 + Nc1ccc(C#CCN(C(=O)Cc2ncc(C(F)(F)F)cc2C(F)(F)F)c2ccc(F)cc2)nn1 ?
62.8

Quick one: viability, T/C of CC1COCCN1c1cc(C2(O)CC3CCC(C2)O3)c2cnn(-c3ccn[nH]3)c2n1 (stereo unspecified) + Cc1cccc(N(C)C(=O)C2C(O)CCN2c2nc(C)cc(C(F)(F)F)c2C#N)c1 ?
43.6

Record request: viability, T/C value, item C#Cc1c(F)ccc2cc(O)cc(-c3ncc4c(N5CC6CCC(C5)N6)nc(OCC56CCCN5CC(F)C6)nc4c3F)c12 (stereo unspecified) + Cc1cccc(N(C)C(=O)C2C(O)CCN2c2nc(C)cc(C(F)(F)F)c2C#N)c1
82.8

Need viability, T/C, item COc1cc(C2c3cc4c(cc3C(OC3OC5COC(C)OC5C(O)C3O)C3COC(=O)C23)OCO4)cc(OC)c1O (stereo unspecified) + Nc1ccc(C#CCN(C(=O)Cc2ncc(C(F)(F)F)cc2C(F)(F)F)c2ccc(F)cc2)nn1
25.9

Looking for the measured viability, T/C of O=c1[nH]cc(F)c(=O)[nH]1 + Cc1cccc(N(C)C(=O)C2C(O)CCN2c2nc(C)cc(C(F)(F)F)c2C#N)c1 , can you help?
29.5

For the compound CC1COCCN1c1cc(C2(S(C)(=N)=O)CC2)nc(-c2ccnc3[nH]ccc23)n1 (stereo unspecified) + Cc1cccc(N(C)C(=O)C2C(O)CCN2c2nc(C)cc(C(F)(F)F)c2C#N)c1 , what viability, T/C is on record?
36.4

GET /values?readout=viability, T/C&item= O=c1[nH]cc(F)c(=O)[nH]1 + Nc1ccc(C#CCN(C(=O)Cc2ncc(C(F)(F)F)cc2C(F)(F)F)c2ccc(F)cc2)nn1
25.1

Query (compound): CCc1cc2c(N3CCc4c(cc(Cn5ccnc5)cc4-c4cn(C)nc4C(F)(F)F)C3=O)cc(C)nc2c(OC)n1 + COC1C(OC(N)=O)C(O)C(Oc2ccc3c(O)c(NC(=O)c4ccc(O)c(CC=C(C)C)c4)c(=O)oc3c2C)OC1(C)C ; field requested: viability, T/C
56.2

What value of viability, T/C has been reported for the following compound? CNCc1ccc(-c2[nH]c3cc(F)cc4c3c2CCNC4=O)cc1 + Nc1ccc(C#CCN(C(=O)Cc2ncc(C(F)(F)F)cc2C(F)(F)F)c2ccc(F)cc2)nn1
98.2

* * *

# Test system: 857933-349-R-J2-PDC complex spheroid viability
# test description: Anticancer human tumor 857933-349-R-J2-PDC cell line growth inhibition [POLQ];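 note: spheroids exposed to compounds for seven days before readout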
# recorded conditions: second compound 3.16 µM; first compound 0.00316 µM; hits give low values
For each record, write down the corresponding viability, T/C.
Express your answer in %, writing the number without its unit.

Record Cn1ncnc1[C@H]1c2n[nH]c(=O)c3cc(F)cc(c23)N[C@@H]1c1ccc(F)cc1 + Cc1cccc(N(C)C(=O)C2C(O)CCN2c2nc(C)cc(C(F)(F)F)c2C#N)c1 : what is its viability, T/C with 857933-349-R-J2-PDC complex spheroid viability?
92.7

// map CC[C@@]1(O)C(=O)OCc2c1cc1n(c2=O)Cc2cc3c(CN(C)C)c(O)ccc3nc2-1 + COC1C(OC(N)=O)C(O)C(Oc2ccc3c(O)c(NC(=O)c4ccc(O)c(CC=C(C)C)c4)c(=O)oc3c2C)OC1(C)C to recorded viability, T/C (system: 857933-349-R-J2-PDC complex spheroid viability)
79.4

Give 857933-349-R-J2-PDC complex spheroid viability viability, T/C for C=CCn1c(=O)c2cnc(Nc3ccc(N4CCN(C)CC4)cc3)nc2n1-c1cccc(C(C)(C)O)n1 + Cc1cccc(N(C)C(=O)C2C(O)CCN2c2nc(C)cc(C(F)(F)F)c2C#N)c1
112

Hi! What's the reported viability, T/C for Cn1ncnc1[C@H]1c2n[nH]c(=O)c3cc(F)cc(c23)N[C@@H]1c1ccc(F)cc1 + COC1C(OC(N)=O)C(O)C(Oc2ccc3c(O)c(NC(=O)c4ccc(O)c(CC=C(C)C)c4)c(=O)oc3c2C)OC1(C)C on 857933-349-R-J2-PDC complex spheroid viability?
95.3

Notebook: pull reported viability, T/C for 857933-349-R-J2-PDC complex spheroid viability, entry COc1cccc(OCCCN)c1-c1cc(Nc2cnc(C#N)cn2)n[nH]1 + Nc1ccc(C#CCN(C(=O)Cc2ncc(C(F)(F)F)cc2C(F)(F)F)c2ccc(F)cc2)nn1
101

Hi! What's the reported viability, T/C for CCc1c2c(nc3ccc(O)cc13)-c1cc3c(c(=O)n1C2)COC(=O)[C@]3(O)CC + Cc1cccc(N(C)C(=O)C2C(O)CCN2c2nc(C)cc(C(F)(F)F)c2C#N)c1 on 857933-349-R-J2-PDC complex spheroid viability?
72.9

Checklist item: viability, T/C tested on 857933-349-R-J2-PDC complex spheroid viability, entry COc1cccc(OCCCN)c1-c1cc(Nc2cnc(C#N)cn2)n[nH]1 + COC1C(OC(N)=O)C(O)C(Oc2ccc3c(O)c(NC(=O)c4ccc(O)c(CC=C(C)C)c4)c(=O)oc3c2C)OC1(C)C , value?
93.7
